# study.target: ATPase family AAA domain-containing protein 5 (Homo sapiens) (UniProt Q96QE3)
# Sequence (Q96QE3 whole entry, looked up, the tested form may be a part): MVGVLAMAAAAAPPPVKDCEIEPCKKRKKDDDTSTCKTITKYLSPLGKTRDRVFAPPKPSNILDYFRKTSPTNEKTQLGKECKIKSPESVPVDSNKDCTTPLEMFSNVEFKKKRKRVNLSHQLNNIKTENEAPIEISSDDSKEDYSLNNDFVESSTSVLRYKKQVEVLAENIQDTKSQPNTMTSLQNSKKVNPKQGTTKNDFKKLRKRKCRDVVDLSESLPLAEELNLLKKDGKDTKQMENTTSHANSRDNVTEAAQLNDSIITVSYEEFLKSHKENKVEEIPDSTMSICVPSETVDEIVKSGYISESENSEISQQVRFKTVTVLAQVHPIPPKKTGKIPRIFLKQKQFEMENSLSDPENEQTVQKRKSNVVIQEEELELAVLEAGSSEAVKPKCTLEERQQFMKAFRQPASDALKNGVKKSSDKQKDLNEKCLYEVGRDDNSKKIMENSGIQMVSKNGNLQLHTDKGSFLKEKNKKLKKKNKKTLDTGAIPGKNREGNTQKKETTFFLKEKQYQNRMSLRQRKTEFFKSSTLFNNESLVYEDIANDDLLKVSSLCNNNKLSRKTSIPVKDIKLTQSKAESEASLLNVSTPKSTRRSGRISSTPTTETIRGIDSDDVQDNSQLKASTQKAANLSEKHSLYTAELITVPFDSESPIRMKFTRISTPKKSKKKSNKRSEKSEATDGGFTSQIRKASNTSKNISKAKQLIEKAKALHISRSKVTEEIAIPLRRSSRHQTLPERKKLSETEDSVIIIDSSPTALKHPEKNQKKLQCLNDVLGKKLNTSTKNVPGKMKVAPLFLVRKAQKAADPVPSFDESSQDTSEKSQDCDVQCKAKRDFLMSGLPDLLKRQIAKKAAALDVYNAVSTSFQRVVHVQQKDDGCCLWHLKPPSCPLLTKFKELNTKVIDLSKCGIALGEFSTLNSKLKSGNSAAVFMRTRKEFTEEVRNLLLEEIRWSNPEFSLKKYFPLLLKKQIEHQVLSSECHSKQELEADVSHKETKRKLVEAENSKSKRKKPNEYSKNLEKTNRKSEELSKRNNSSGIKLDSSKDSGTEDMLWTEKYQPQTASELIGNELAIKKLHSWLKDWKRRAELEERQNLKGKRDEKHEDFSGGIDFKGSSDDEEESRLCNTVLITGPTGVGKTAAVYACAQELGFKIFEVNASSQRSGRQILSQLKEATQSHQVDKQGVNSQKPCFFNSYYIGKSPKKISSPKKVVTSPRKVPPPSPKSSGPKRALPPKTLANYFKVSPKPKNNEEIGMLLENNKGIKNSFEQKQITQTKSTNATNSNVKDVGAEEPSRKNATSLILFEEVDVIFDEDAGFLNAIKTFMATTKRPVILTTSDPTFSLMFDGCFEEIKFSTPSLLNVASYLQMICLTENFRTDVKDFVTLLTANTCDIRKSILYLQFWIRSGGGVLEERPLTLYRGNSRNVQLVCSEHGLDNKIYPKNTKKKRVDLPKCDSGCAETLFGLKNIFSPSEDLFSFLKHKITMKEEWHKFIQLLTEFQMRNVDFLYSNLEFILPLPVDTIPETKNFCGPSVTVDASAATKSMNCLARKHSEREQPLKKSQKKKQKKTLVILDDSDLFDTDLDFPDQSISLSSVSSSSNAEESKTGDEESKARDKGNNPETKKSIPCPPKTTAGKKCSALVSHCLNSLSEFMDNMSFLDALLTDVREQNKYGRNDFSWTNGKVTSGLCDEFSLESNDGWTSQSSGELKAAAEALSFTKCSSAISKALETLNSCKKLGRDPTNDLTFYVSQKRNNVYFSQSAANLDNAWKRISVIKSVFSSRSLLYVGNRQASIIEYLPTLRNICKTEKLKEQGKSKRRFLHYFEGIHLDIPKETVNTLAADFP
# protocol.summary: HTS assay for small molecules that inhibit ELG1-dependent DNA repair in human embryonic kidney (HEK293T) cells expressing luciferase-tagged ELG1: Hit Confirmation (AID 624248); further: nearly all actives have a fitted effect of over 55% in size
# experimental.conditions: HEK293T ELG1-luciferase levels, luminescence, cells co-treated with 5-fluorouridine; series mostly up to 46.1 µM
The other results are listed elsewhere or left out. Inconclusive results are not listed. Activity calls are given as the source filed them. The call rests on the fitted dose curve; in most records, active means well fitted inhibition curve with a large enough effect; inconclusive means small, poorly fitted or top-dose-only effect; inactive means no such curve, though single readings can be large or run the other way.
Possible outcomes: 1 for active, -1 for inactive

OCCCNc1nccc(-c2cc(Nc3cccc(Cl)c3)ncn2)n1 :: 1
CCc1ccc(N(CC)c2ncnc3nc[nH]c23)cc1 :: 1
CC(=O)c1c(C)n(-c2ccc(C)cc2)c2ccc(O)cc12 :: -1
COc1ccc(CSc2nc(N3CCOCC3)c3c(c2C#N)CC(C)(C)OC3)cc1 :: 1
CS(=O)(=O)c1ccc2nc(NC(=O)C3CCCCC3)sc2c1 :: 1
